# targetOrSystem: Steroid hormone receptor ERR1 (Homo sapiens, UniProt P11474)
# Sequence (P11474 whole entry): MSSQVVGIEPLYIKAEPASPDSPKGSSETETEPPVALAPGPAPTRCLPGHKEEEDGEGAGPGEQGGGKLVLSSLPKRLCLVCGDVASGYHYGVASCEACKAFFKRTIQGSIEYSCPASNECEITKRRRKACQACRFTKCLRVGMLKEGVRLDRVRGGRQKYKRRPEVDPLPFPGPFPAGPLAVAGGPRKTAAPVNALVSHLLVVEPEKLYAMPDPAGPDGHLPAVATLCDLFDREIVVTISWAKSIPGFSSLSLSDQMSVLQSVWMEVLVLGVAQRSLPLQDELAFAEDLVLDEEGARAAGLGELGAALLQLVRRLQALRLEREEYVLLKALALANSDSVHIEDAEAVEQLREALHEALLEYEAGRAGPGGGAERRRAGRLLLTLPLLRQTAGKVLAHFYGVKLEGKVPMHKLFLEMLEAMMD
# assayOverview: Inverse agonist activity at GAL4-fused human ERRalpha expressed in HEK293 cells assessed as inhibition of transcriptional activity after 20 hrs by luciferase reporter gene assay
The reader will find reported IC50 values listed item by item below.

| compound | targetOrSystem | boundOperator | IC50, nM |
| --- | --- | --- | --- |
| CC(=O)c1ccc(N2CCN(C(=O)c3cc4c(C)nn(Cc5cccc(OCC6CCN(C(=O)CCC7=[N+]8C(=Cc9c(C)cc(C)n9[B-]8(F)F)C=C7)C6)c5)c4s3)C[C@H]2C)nc1 (some centres not stated) | Steroid hormone receptor ERR1 (Homo sapiens, UniProt P11474) | = | 770 |
| CC(=O)c1ccc(N2CCN(C(=O)c3cc4c(C)nn(Cc5cccc(OCC6CN(C(=O)CCC7=[N+]8C(=Cc9c(C)cc(C)n9[B-]8(F)F)C=C7)CCO6)c5)c4s3)C[C@H]2C)nc1 (some centres not stated) | Steroid hormone receptor ERR1 (Homo sapiens, UniProt P11474) | > | 1000 |
| CC(=O)c1ccc(N2CCN(C(=O)c3cc4c(C)nn(Cc5cccc(OCCOCCOCCOCCNC(=O)CCC6=[N+]7C(=Cc8c(C)cc(C)n8[B-]7(F)F)C=C6)c5)c4s3)C[C@H]2C)nc1 | Steroid hormone receptor ERR1 (Homo sapiens, UniProt P11474) | = | 570 |
| CC(=O)c1ccc(N2CCN(C(=O)c3cc4c(C)nn(Cc5cccc(OCCOCCOCCNC(=O)CCC6=[N+]7C(=Cc8c(C)cc(C)n8[B-]7(F)F)C=C6)c5)c4s3)C[C@H]2C)nc1 | Steroid hormone receptor ERR1 (Homo sapiens, UniProt P11474) | = | 390 |
| CC(=O)c1ccc(N2CCN(C(=O)c3cc4c(C)nn(Cc5cccc(OCc6ccc(CNC(=O)CCC7=[N+]8C(=Cc9c(C)cc(C)n9[B-]8(F)F)C=C7)cc6)c5)c4s3)C[C@H]2C)nc1 | Steroid hormone receptor ERR1 (Homo sapiens, UniProt P11474) | = | 170 |
| CC(=O)c1ccc(N2CCN(C(=O)c3cc4c(C)nn(Cc5cccc(OCCNC(=O)CCC6=[N+]7C(=Cc8c(C)cc(C)n8[B-]7(F)F)C=C6)c5)c4s3)C[C@H]2C)nc1 | Steroid hormone receptor ERR1 (Homo sapiens, UniProt P11474) | = | 650 |
| CC(=O)c1ccc(N2CCN(C(=O)c3cc4c(C)nn(Cc5cccc(OCCCCNC(=O)CCC6=[N+]7C(=Cc8c(C)cc(C)n8[B-]7(F)F)C=C6)c5)c4s3)C[C@H]2C)nc1 | Steroid hormone receptor ERR1 (Homo sapiens, UniProt P11474) | = | 170 |
| COCCOc1cccc(Cn2nc(C)c3cc(C(=O)N4CCN(c5ccc(C(C)=O)cn5)[C@H](C)C4)sc32)c1 | Steroid hormone receptor ERR1 (Homo sapiens, UniProt P11474) | = | 22 |
| CC(=O)c1ccc(N2CCN(C(=O)c3cc4c(C)nn(Cc5cccc(OCCCNC(=O)CCC6=[N+]7C(=Cc8c(C)cc(C)n8[B-]7(F)F)C=C6)c5)c4s3)C[C@H]2C)nc1 | Steroid hormone receptor ERR1 (Homo sapiens, UniProt P11474) | = | 490 |
| CC(=O)c1ccc(N2CCN(C(=O)c3cc4c(C)nn(Cc5cccc(OCCCCCNC(=O)CCC6=[N+]7C(=Cc8c(C)cc(C)n8[B-]7(F)F)C=C6)c5)c4s3)C[C@H]2C)nc1 | Steroid hormone receptor ERR1 (Homo sapiens, UniProt P11474) | = | 80 |
| CC(=O)c1ccc(N2CCN(C(=O)c3cc4c(C)nn(Cc5cccc(OCC6CCN(C(=O)CCC7=[N+]8C(=Cc9c(C)cc(C)n9[B-]8(F)F)C=C7)CC6)c5)c4s3)C[C@H]2C)nc1 | Steroid hormone receptor ERR1 (Homo sapiens, UniProt P11474) | = | 210 |
| CC(=O)c1ccc(N2CCN(C(=O)c3cc4c(C)nn(Cc5cccc(OCCOCCNC(=O)CCC6=[N+]7C(=Cc8c(C)cc(C)n8[B-]7(F)F)C=C6)c5)c4s3)C[C@H]2C)nc1 | Steroid hormone receptor ERR1 (Homo sapiens, UniProt P11474) | = | 280 |
